Source listed as PubChem BioAssay AID2060512.

- Test system: 186277-243-T-J2-PDC complex spheroid viability
- Test Description: Anticancer human tumor 186277-243-T-J2-PDC patient-derived colon adenocarcinoma cell line growth inhibition [GQUAD]; active means viability on the fitted dose curve at most 10% of control; inactive means the rest
- Settings: second compound 0.316 µM; first compound 10 µM
Hi! Could you answer with just one of these? active, inactive

A selection of reference data follows.
1) O=C(NO)c1cnc(N2CCN(S(=O)(=O)c3ccc4ccccc4c3)CC2)nc1 + Cc1cnc(CNC(=O)c2c(=O)c3ccc(N4CCCN(C)CC4)nc3n3c2sc2ccccc23)cn1    active
2) C#Cc1c(F)ccc2cc(O)cc(-c3ncc4c(N5CC6CCC(C5)N6)nc(OCC56CCCN5CC(F)C6)nc4c3F)c12 (centres undefined) + Cc1cnc(CNC(=O)c2c(=O)c3ccc(N4CCCN(C)CC4)nc3n3c2sc2ccccc23)cn1    active
3) O=C(NO)c1cnc(N2CCN(S(=O)(=O)c3ccc4ccccc4c3)CC2)nc1 + CN(C)c1ccc(Nc2c3ccc(NC(=O)CCN4CCCC4)cc3nc3cc(NC(=O)CCN4CCCC4)ccc23)cc1    active
4) CC(=O)O[C@H]1C(=O)[C@@]2(C)[C@H]([C@H](OC(=O)c3ccccc3)[C@]3(O)C[C@H](OC(=O)[C@H](O)[C@@H](NC(=O)c4ccccc4)c4ccccc4)C(C)=C1C3(C)C)[C@]1(OC(C)=O)CO[C@@H]1C[C@@H]2O + Cc1cnc(CNC(=O)c2c(=O)c3ccc(N4CCCN(C)CC4)nc3n3c2sc2ccccc23)cn1    inactive
5) CC1COCCN1c1cc(-c2ccnn2C)c2ccnc(-c3ccn[nH]3)c2n1 (centres undefined) + Cc1[nH]c2ccc(F)cc2c1-c1nc2c3cccnc3c3ncccc3c2[nH]1    active
6) CCCS(=O)(=O)Nc1ccc(F)c(C(=O)c2c[nH]c3ncc(-c4ccc(Cl)cc4)cc23)c1F + Cc1cnc(CNC(=O)c2c(=O)c3ccc(N4CCCN(C)CC4)nc3n3c2sc2ccccc23)cn1    inactive
7) CC(=O)O[C@H]1C(=O)[C@@]2(C)[C@H]([C@H](OC(=O)c3ccccc3)[C@]3(O)C[C@H](OC(=O)[C@H](O)[C@@H](NC(=O)c4ccccc4)c4ccccc4)C(C)=C1C3(C)C)[C@]1(OC(C)=O)CO[C@@H]1C[C@@H]2O + CN(C)c1ccc(Nc2c3ccc(NC(=O)CCN4CCCC4)cc3nc3cc(NC(=O)CCN4CCCC4)ccc23)cc1    active
8) Cc1cccc(N(C)C(=O)C2C(O)CCN2c2nc(C)cc(C(F)(F)F)c2C#N)c1 (centres undefined) + Cc1cnc(CNC(=O)c2c(=O)c3ccc(N4CCCN(C)CC4)nc3n3c2sc2ccccc23)cn1    inactive

Now consider the entry below.
Input: Kindly provide the recorded test outcome for the following molecule: CC(C)n1c(=O)n(C)c2cnc3cc(F)c(-c4ccc(OCCCN5CCCCC5)nc4)cc3c21 + CN(C)c1ccc(Nc2c3ccc(NC(=O)CCN4CCCC4)cc3nc3cc(NC(=O)CCN4CCCC4)ccc23)cc1
Output: inactive

###

# viability, T/C per record follows
- System: 186277-243-T-J2-PDC complex spheroid viability
- Test Description: Anticancer human tumor 186277-243-T-J2-PDC cell line growth inhibition [GQUAD];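 further: spheroids exposed to drugs for 7 days; 100% = DMSO vehicle control viability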
- Settings: second compound 0.1 µM; first compound 0.0316 µM; stronger effect = lower value
Number only, in %; omit the unit.

For orientation, consider the following solved cases.
1. CC1COCCN1c1cc(C2(S(C)(=N)=O)CC2)nc(-c2ccnc3[nH]ccc23)n1 (stereo unspecified) + Cc1[nH]c2ccc(F)cc2c1-c1nc2c3cccnc3c3ncccc3c2[nH]1    109
2. Cc1[nH]c2ccccc2c1CCNCc1ccc(/C=C/C(=O)NO)cc1 + Cc1cnc(CNC(=O)c2c(=O)c3ccc(N4CCCN(C)CC4)nc3n3c2sc2ccccc23)cn1    36.7
3. COc1cc(C2c3cc4c(cc3C(OC3OC5COC(C)OC5C(O)C3O)C3COC(=O)C23)OCO4)cc(OC)c1O (stereo unspecified) + Cc1[nH]c2ccc(F)cc2c1-c1nc2c3cccnc3c3ncccc3c2[nH]1    92.1
4. Nc1ccn(C2OC(CO)C(O)C2(F)F)c(=O)n1 (stereo unspecified) + CN(C)c1ccc(Nc2c3ccc(NC(=O)CCN4CCCC4)cc3nc3cc(NC(=O)CCN4CCCC4)ccc23)cc1    10.4
5. C=CCn1c(=O)c2cnc(Nc3ccc(N4CCN(C)CC4)cc3)nc2n1-c1cccc(C(C)(C)O)n1 + Cc1[nH]c2ccc(F)cc2c1-c1nc2c3cccnc3c3ncccc3c2[nH]1    112

Input: Requested field: viability, T/C. Item: CC(C)n1c(=O)n(C)c2cnc3cc(F)c(-c4ccc(OCCCN5CCCCC5)nc4)cc3c21 + Cc1cnc(CNC(=O)c2c(=O)c3ccc(N4CCCN(C)CC4)nc3n3c2sc2ccccc23)cn1
Output: 70.4

Input: Requested field: viability, T/C. Item: CC(C)(O)C1CCC(Nc2ccc3ncc(-c4cccc(C(F)(F)F)c4)n3n2)CC1 (stereo unspecified) + Cc1[nH]c2ccc(F)cc2c1-c1nc2c3cccnc3c3ncccc3c2[nH]1
Output: 100

Input: Requested field: viability, T/C. Item: COc1cccc2c1C(=O)c1c(O)c3c(c(O)c1C2=O)CC(O)(C(=O)CO)CC3OC1CC(N)C(O)C(C)O1 (stereo unspecified) + CN(C)c1ccc(Nc2c3ccc(NC(=O)CCN4CCCC4)cc3nc3cc(NC(=O)CCN4CCCC4)ccc23)cc1
Output: 96.2

Input: Requested field: viability, T/C. Item: O=C(NO)c1cnc(N2CCN(S(=O)(=O)c3ccc4ccccc4c3)CC2)nc1 + Cc1[nH]c2ccc(F)cc2c1-c1nc2c3cccnc3c3ncccc3c2[nH]1
Output: 117

Input: Requested field: viability, T/C. Item: CC1COCCN1c1cc(C2(S(C)(=N)=O)CC2)nc(-c2ccnc3[nH]ccc23)n1 (stereo unspecified) + Cc1cnc(CNC(=O)c2c(=O)c3ccc(N4CCCN(C)CC4)nc3n3c2sc2ccccc23)cn1
Output: 101

Input: Requested field: viability, T/C. Item: Cc1[nH]c2ccccc2c1CCNCc1ccc(/C=C/C(=O)NO)cc1 + CN(C)c1ccc(Nc2c3ccc(NC(=O)CCN4CCCC4)cc3nc3cc(NC(=O)CCN4CCCC4)ccc23)cc1
Output: 84.6
